Reference source for all entries: patent US10231954B2

# tested system: MNK1 (Homo sapiens, UniProt Q9BUB5)
# Sequence (Q9BUB5 whole entry, species assumed): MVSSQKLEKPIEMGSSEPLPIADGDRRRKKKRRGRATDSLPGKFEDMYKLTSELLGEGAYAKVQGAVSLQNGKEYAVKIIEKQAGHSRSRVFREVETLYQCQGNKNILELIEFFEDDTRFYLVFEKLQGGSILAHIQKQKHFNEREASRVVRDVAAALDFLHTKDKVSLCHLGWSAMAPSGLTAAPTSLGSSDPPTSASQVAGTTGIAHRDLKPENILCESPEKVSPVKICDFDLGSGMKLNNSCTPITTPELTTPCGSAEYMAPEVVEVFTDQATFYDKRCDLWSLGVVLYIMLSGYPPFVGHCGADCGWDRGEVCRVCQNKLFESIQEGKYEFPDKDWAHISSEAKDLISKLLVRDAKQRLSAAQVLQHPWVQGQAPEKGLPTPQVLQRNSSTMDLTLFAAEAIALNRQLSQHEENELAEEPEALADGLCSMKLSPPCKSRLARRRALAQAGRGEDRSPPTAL
# assay info: Kinase profiling MNK1
# Format: biochemical
# experimental setup: 100 micromolar inhibitor concentration; 100 is no change
Listed below: residual kinase activity, MNK1 values for each entry.
# answer = number (no unit)

chemical smiles | tested system | observable | data value
O=C(Nc1nc2ccc(O)cc2s1)c1ccccn1 | MNK1 (Homo sapiens, UniProt Q9BUB5) | residual kinase activity, MNK1 | 67

query: Could you share what residual kinase activity, MNK1 was measured for O=C(Nc1nc2cc(O)ccc2s1)c1cccnc1 , tested on MNK1 (Homo sapiens, UniProt Q9BUB5)?
result: 21

query: Can you handle CC(=O)Nc1nc2cc(C)ccc2s1 next?
result: 81

query: Then this molecule: O=C(Nc1nc2ccc(O)cc2s1)c1ccncc1
result: 53

----------
residual kinase activity, HIPK2 listing for selected compounds.
# tested system: HIPK2 (Homo sapiens, UniProt Q9H2X6)
# Sequence (Q9H2X6 whole entry, species assumed): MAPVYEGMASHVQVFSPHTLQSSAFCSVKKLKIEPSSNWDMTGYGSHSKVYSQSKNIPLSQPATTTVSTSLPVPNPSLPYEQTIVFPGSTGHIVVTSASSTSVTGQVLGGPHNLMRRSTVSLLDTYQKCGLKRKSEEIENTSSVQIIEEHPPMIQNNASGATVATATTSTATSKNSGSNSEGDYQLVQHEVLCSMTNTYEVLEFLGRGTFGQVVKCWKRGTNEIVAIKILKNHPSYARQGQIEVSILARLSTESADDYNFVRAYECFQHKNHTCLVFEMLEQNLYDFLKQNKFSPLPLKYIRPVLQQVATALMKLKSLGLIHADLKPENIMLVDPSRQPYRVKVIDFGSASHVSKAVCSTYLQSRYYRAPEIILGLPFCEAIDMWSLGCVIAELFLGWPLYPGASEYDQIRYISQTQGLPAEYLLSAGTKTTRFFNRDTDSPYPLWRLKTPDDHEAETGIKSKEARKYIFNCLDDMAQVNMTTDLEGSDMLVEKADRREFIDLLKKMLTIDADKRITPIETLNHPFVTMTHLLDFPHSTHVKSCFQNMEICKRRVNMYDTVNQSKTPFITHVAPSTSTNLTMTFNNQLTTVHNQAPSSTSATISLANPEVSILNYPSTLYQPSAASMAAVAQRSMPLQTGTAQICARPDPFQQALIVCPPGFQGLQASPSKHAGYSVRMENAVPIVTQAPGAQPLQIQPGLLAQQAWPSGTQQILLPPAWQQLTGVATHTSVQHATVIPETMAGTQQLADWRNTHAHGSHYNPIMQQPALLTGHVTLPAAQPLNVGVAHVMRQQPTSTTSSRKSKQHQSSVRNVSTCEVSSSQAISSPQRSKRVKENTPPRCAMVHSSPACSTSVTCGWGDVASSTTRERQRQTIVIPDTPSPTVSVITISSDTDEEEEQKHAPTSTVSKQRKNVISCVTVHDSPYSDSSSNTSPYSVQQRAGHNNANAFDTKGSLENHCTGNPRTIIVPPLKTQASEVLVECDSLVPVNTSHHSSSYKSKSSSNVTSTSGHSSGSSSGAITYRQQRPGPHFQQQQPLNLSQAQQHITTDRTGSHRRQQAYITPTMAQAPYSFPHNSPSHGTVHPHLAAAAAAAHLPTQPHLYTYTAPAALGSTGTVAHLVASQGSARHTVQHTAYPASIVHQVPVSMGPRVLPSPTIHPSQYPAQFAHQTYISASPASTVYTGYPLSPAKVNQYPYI
# assay info: Kinase profiling HIPK2
# Type: biochemical
# experimental setup: 100 micromolar inhibitor concentration; 100 is no change

Answered cases to consult:
compound | observable | data value
O=C(Nc1nc2cc(O)ccc2s1)c1ccncc1 [Compound 03-11] | residual kinase activity, HIPK2 | 67
COc1ccc2sc(NC(=O)c3ccccc3)nc2c1 [Compound 03-95] | residual kinase activity, HIPK2 | 74
O=C(Nc1nc2ccc(O)cc2s1)c1ccccn1 [Compound 03-12] | residual kinase activity, HIPK2 | 18
CC(=O)Nc1nc2ccc(F)cc2s1 [Compound 03-94] | residual kinase activity, HIPK2 | 27

query: residual kinase activity, HIPK2 for O=C(Nc1nc2ccc(O)cc2s1)c1ccncc1 [Compound 08-42] ?
result: 23

query: How about O=C(Nc1nc2ccc(O)cc2s1)c1cccnc1 [Compound 08-44] ?
result: 19

query: One more compound: COC(=O)c1cccc(C(=O)Nc2nc3ccc(F)cc3s2)c1 [Compound 03-110]
result: 66

query: Param item: COc1ccc2nc(NC(=O)c3ccccc3)sc2c1 [Compound 03-98]
result: 41

query: Similarly, N#Cc1ccc2nc(NC(=O)c3ccccc3)sc2c1 [Compound 03-106] ?
result: 62

query: Ok, now CC(=O)Nc1nc2cc(C)ccc2s1 [Compound 03-76]
result: 51

query: Try the compound CC(=O)Nc1nc2ccccc2s1 [Compound 03-32]
result: 51

query: And for O=C(Nc1nc2ccc(F)cc2s1)c1ccccc1 [Compound 03-92] ?
result: 78

query: Now try O=C(Nc1nc2cc(O)ccc2s1)c1ccccc1 [Compound 03-102] .
result: 36

query: Please do the same for O=C(Nc1nc2cc(O)ccc2s1)c1ccccn1 [Compound 03-13] as well.
result: 43

query: Field entry: COc1ccc2sc(NC(=O)c3cccc(C(N)=O)c3)nc2c1 [Compound 03-113]
result: 96

query: Thanks! And O=C(Nc1nc2cc(O)ccc2s1)c1cccnc1 [Compound 03-33] ?
result: 52

query: Entry O=C(Nc1nc2ccc(C(F)(F)F)cc2s1)c1ccccc1 [Compound 03-99] please
result: 90

query: Another: O=C(Nc1nc2ccc(O)cc2s1)c1ccccc1 [Compound 03-60]
result: 8

query: COC(=O)c1cccc(C(=O)Nc2nc3cc(OC)ccc3s2)c1 [Compound 03-108] , same question.
result: 87
